# conditionContext: human;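 also: human cholestatic liver injury, shown by histopathology or by peak ALT or AST elevation over alkaline phosphatase ratio below 2, value counts indexed literature reports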
Consider the following molecules and their measured Hepatotoxicity (choleostasis) readings.
quantityKind: Hepatotoxicity (choleostasis)

>>> quantitativereadout("CN(C)CCCN1c2ccccc2Sc2ccccc21 [PROMAZINE]")
6
>>> quantitativereadout("CCOC(=O)C1=C(C)NC(C)=C(C(=O)OCC)C1c1ccccc1/C=C/C(=O)OC(C)(C)C [LACIDIPINE]")
0
>>> quantitativereadout("O=P(O)(O)C(Sc1ccc(Cl)cc1)P(=O)(O)O [TILUDRONIC ACID]")
0
>>> quantitativereadout("CCC(C)(C)NCC(O)COc1ccccc1C(=O)CCc1ccccc1 (centres undefined) [DIPRAFENONE]")
1
>>> quantitativereadout("CC1(C)S[C@@H]2[C@H](NC(=O)C(c3ccccc3)S(=O)(=O)O)C(=O)N2[C@H]1C(=O)O (some centres undefined) [SULBENICILLIN]")
2
>>> quantitativereadout("CO[C@@H]1[C@@H](O[C@@H]2O[C@H](C)[C@@H](O[C@H]3C[C@@](C)(O)[C@@H](OC(=O)CC(C)C)[C@H](C)O3)[C@H](N(C)C)[C@H]2O)[C@@H](CC=O)C[C@@H](C)[C@@H](O)/C=C/C=C/C[C@@H](C)OC(=O)C[C@H]1OC(C)=O [JOSAMYCIN]")
5
>>> quantitativereadout("O=C1NCCN1c1ncc([N+](=O)[O-])s1 [NIRIDAZOLE]")
0
>>> quantitativereadout("CC(C(=O)O)c1ccc(-c2ccccc2)c(F)c1 (centres undefined) [FLURBIPROFEN]")
1
>>> quantitativereadout("CC1(C)S[C@@H]2[C@H](NC(=O)C(C(=O)O)c3ccccc3)C(=O)N2[C@H]1C(=O)O (some centres undefined) [CARBENICILLIN]")
0
>>> quantitativereadout("CC1COc2c(N3CCN(C)CC3)c(F)cc3c(=O)c(C(=O)O)cn1c23 (centres undefined) [OFLOXACIN]")
5
>>> quantitativereadout("Cc1oncc1C(=O)Nc1ccc(C(F)(F)F)cc1 [LEFLUNOMIDE]")
0
>>> quantitativereadout("NN [HYDRAZINE]")
0
>>> quantitativereadout("O=C1CN2Cc3c(ccc(Cl)c3Cl)N=C2N1 [ANAGRELIDE]")
1
>>> quantitativereadout("C[C@]12C=CC(=O)C=C1CC[C@@H]1[C@@H]2C(=O)C[C@@]2(C)[C@H]1CC[C@]2(O)C(=O)CO [PREDNISONE]")
0
>>> quantitativereadout("CC(Cc1ccccc1)NN (centres undefined) [PHENIPRAZINE]")
0
>>> quantitativereadout("CO[C@@H]1C[C@](C)(O)Cc2cc3c(c(O)c21)C(=O)c1c(O)cc2c(c1C3=O)O[C@@H]1O[C@@]2(C)[C@H](O)[C@@H](N(C)C)[C@@H]1O [MENOGARIL]")
0
>>> quantitativereadout("CC(C)C[C@H]1C(=O)N2CCC[C@H]2[C@]2(O)O[C@](NC(=O)[C@@H]3C=C4c5cccc6[nH]c(Br)c(c56)C[C@H]4N(C)C3)(C(C)C)C(=O)N12 [BROMOCRIPTINE]")
0
>>> quantitativereadout("C=CCC1(C(C)C#CCC)C(=O)N=C(O)N(C)C1=O (centres undefined) [METHOHEXITAL]")
0
>>> quantitativereadout("N#C[C@H](O[C@@H]1O[C@H](CO[C@@H]2O[C@H](CO)[C@@H](O)[C@H](O)[C@H]2O)[C@@H](O)[C@H](O)[C@H]1O)c1ccccc1 [AMYGDALIN]")
0
>>> quantitativereadout("COCCCN1CCC(NC(=O)c2cc(Cl)c(N)c3c2OCC3)CC1 [PRUCALOPRIDE]")
0
>>> quantitativereadout("CC(=O)Nc1ccc(OCC(O)CNC(C)C)cc1 (centres undefined) [PRACTOLOL]")
0
>>> quantitativereadout("CCS(=O)(=O)CCn1c([N+](=O)[O-])cnc1C [TINIDAZOLE]")
0
>>> quantitativereadout("O=C1CN(/N=C/c2ccc(-c3ccc([N+](=O)[O-])cc3)o2)C(O)=N1 [DANTROLENE]")
6
>>> quantitativereadout("[Li] [LITHIUM]")
0
>>> quantitativereadout("CC1=C(C/C=C(\\C)CCC[C@H](C)CCC[C@H](C)CCCC(C)C)C(=O)c2ccccc2C1=O [PHYTONADIONE]")
0
>>> quantitativereadout("O=c1[nH]cc(F)c(=O)[nH]1 [FLUOROURACIL]")
1
>>> quantitativereadout("NS(=O)(=O)c1cc(C(=O)O)cc(N2CCCC2)c1Oc1ccccc1 [PIRETANIDE]")
0
>>> quantitativereadout("O=C(Oc1ccccc1C(=O)O)c1ccccc1O [SALSALATE]")
0
>>> quantitativereadout("C=CC(N)CCC(=O)O (centres undefined) [VIGABATRIN]")
0
>>> quantitativereadout("CC(=O)O[C@H]1CC[C@H]2[C@@H]3CC[C@H]4CC(=O)C=C(C)[C@]4(C)[C@H]3CC[C@]12C [METHENOLONE ACETATE]")
0
>>> quantitativereadout("O=C1CC2(CCCC2)CC(=O)N1CCCCN1CCN(c2ncccn2)CC1 [BUSPIRONE]")
1
>>> quantitativereadout("Cc1c(C(C)C)c(=O)n(-c2ccccc2)n1C [PROPYPHENAZONE]")
0
>>> quantitativereadout("C[C@@H]1C[C@H]2[C@@H]3CCC4=CC(=O)C=C[C@]4(C)C3=CC[C@]2(C)[C@H]1C(=O)CN1CCN(c2cc(N3CCCC3)nc(N3CCCC3)n2)CC1 [TIRILAZAD]")
0
>>> quantitativereadout("CC(C)(Sc1cc(C(C)(C)C)c(O)c(C(C)(C)C)c1)Sc1cc(C(C)(C)C)c(O)c(C(C)(C)C)c1 [PROBUCOL]")
0
